Where do the numbers come from? From paper PMC3678512.

Hi there, I'd appreciate the recorded PAMPA Pe, donor pH 7.4 for every entry that follows.
Assay: PAMPA (parallel artificial membrane permeability assay)
Type: in vitro ADME
Details: donor pH 7.4, acceptor pH 7.4, compound at 50 μM
Method: The probes were evaluated using known in vitro ADME/T assays to understand their overall pharmacological properties (Table 2). […] The PAMPA (parallel artificial membrane permeability assay) assay is used as an in vitro model of passive, transcellular permeability. An artificial membrane immobilized on a filter is placed between a donor and acceptor compartment. […] It is not yet known whether it represents a species specific CPY450 inhibitor.

Query :: Could you share which PAMPA Pe, donor pH 7.4 value was measured for Cc1cc2nc(NCCCO)n(CC(=O)c3cc(C(C)(C)C)c(O)c(C(C)(C)C)c3)c2cc1C ?
Result :: 441 10^−6 cm/s

Query :: Same again, this time with Cc1ccc(S(=O)(=O)n2c(N)nc3ccccc32)cc1
Result :: 382 10^−6 cm/s

Query :: Same again, this time with C/C=C/Cn1c(SCCCc2ccccc2)nc2c1c(=O)[nH]c(=O)n2C
Result :: 1344 10^−6 cm/s

Query :: Same again, this time with CCOc1ccc(-c2nc(CSCC(=O)NC3CC3)c(C)o2)cc1
Result :: 59 10^−6 cm/s

Query :: Same again, this time with CNC(=O)CCc1nc(-c2ccc(C(C)(C)C)cc2)no1
Result :: 746 10^−6 cm/s
